# System: NCI-H1975
# experiment summary: cells
# Type: functional, cell-based
# condition context: Homo sapiens, NCI-H1975, 24 h
# Description: Antiproliferative activity against human NCI-H1975 cells assessed as inhibition of cell growth incubated for 24 hrs by CCK-8 assay
pIC50: −log10 of the molar value.
property: pIC50

[[record]]
compound = "COC(=O)[C@H](CS[C@H](CC=C(C)C)C1=CC(=O)c2c(O)ccc(O)c2C1=O)NC(=O)CCCC[C@@H]1CCSC(c2ccc(C(C)C)cc2)S1 (stereo not given in full)"
target_entity = "NCI-H1975"
property = "pIC50"
obs_value = 5.39

[[record]]
compound = "COC(=O)[C@H](CS[C@H](CC=C(C)C)C1=CC(=O)c2c(O)ccc(O)c2C1=O)NC(=O)CCCC[C@@H]1CCSC(c2cccc(Cl)c2Cl)S1 (stereo not given in full)"
target_entity = "NCI-H1975"
property = "pIC50"
obs_value = 5.77

[[record]]
compound = "COC(=O)[C@H](CS[C@H](CC=C(C)C)C1=CC(=O)c2c(O)ccc(O)c2C1=O)NC(=O)CCCC[C@@H]1CCSC(c2ccccc2)S1 (stereo not given in full)"
target_entity = "NCI-H1975"
property = "pIC50"
obs_value = 4.94

[[record]]
compound = "COC(=O)[C@H](CS[C@H](CC=C(C)C)C1=CC(=O)c2c(O)ccc(O)c2C1=O)NC(=O)CCCC[C@@H]1CCSC(c2ccc(OC)cc2)S1 (stereo not given in full)"
target_entity = "NCI-H1975"
property = "pIC50"
obs_value = 5.57

[[record]]
compound = "CC(C)=CC[C@@H](O)C1=CC(=O)c2c(O)ccc(O)c2C1=O"
target_entity = "NCI-H1975"
property = "pIC50"
obs_value = 5.34

